All figures here come from paper PMC3388080.

- ASSAY_INFO: in vivo
- EXPERIMENTAL_CONDITIONS: Wistar, rat, in vivo, iv
Quick reference: half-life of the listed items.
MEASURED_ENDPOINT: half-life (h)

{"columns": ["MOLECULE", "MEASURED_ENDPOINT", "QUANTITATIVE_READOUT"],
 "data": [
  ["CNC(=O)[C@@H](c1ccccc1)N1CCc2cc(OC)c(OC)cc2[C@@H]1CCc1ccc(C(F)(F)F)cc1 [almorexant]", "half-life", 2.58],
  ["Cc1cc(NC(=O)Nc2ccc(N(C)C)cc2)c2cc(F)cc(F)c2n1 [SB-408124]", "half-life", 1.12]
]}

---

- ASSAY_INFO: in vitro
- EXPERIMENTAL_CONDITIONS: human, plasma
This listing pairs compounds with measured fraction unbound.
MEASURED_ENDPOINT: fraction unbound

{"columns": ["SMILES_RECORD", "MODIFIER_SIGN", "QUANTITATIVE_READOUT"],
 "data": [
  ["Cc1cc(NC(=O)Nc2ccc(N(C)C)cc2)c2cc(F)cc(F)c2n1", "=", 0.003],
  ["CNC(=O)[C@@H](c1ccccc1)N1CCc2cc(OC)c(OC)cc2[C@@H]1CCc1ccc(C(F)(F)F)cc1", "<", 0.037]
]}

---

- ASSAY_INFO: in vivo
- EXPERIMENTAL_CONDITIONS: Wistar, rat, in vivo, iv
molecules and their reported Vd

{"columns": ["SMILES_RECORD", "Vd (L/kg)"],
 "data": [
  ["CNC(=O)[C@@H](c1ccccc1)N1CCc2cc(OC)c(OC)cc2[C@@H]1CCc1ccc(C(F)(F)F)cc1", 9.45],
  ["Cc1cc(NC(=O)Nc2ccc(N(C)C)cc2)c2cc(F)cc(F)c2n1", 0.2]
]}

---

- ASSAY_INFO: in vivo
- EXPERIMENTAL_CONDITIONS: Wistar, rat, in vivo, po
Below, each entry is listed with its recorded half-life.
MEASURED_ENDPOINT: half-life (h)

{"columns": ["COMPOUND", "QUANTITATIVE_READOUT"],
 "data": [
  ["Cc1cc(NC(=O)Nc2ccc(N(C)C)cc2)c2cc(F)cc(F)c2n1 [SB-408124]", 1.95],
  ["CNC(=O)[C@@H](c1ccccc1)N1CCc2cc(OC)c(OC)cc2[C@@H]1CCc1ccc(C(F)(F)F)cc1 [almorexant]", 1.29]
]}

---

- TARGET_OR_TEST_SYSTEM: rHCRTR1 (Rattus norvegicus)
- Construct: expressed in transfected cells; host or cells: HEK293 (transient transfection, pCI-Neo vector), membrane preparation
- Sequence (P56718 whole entry): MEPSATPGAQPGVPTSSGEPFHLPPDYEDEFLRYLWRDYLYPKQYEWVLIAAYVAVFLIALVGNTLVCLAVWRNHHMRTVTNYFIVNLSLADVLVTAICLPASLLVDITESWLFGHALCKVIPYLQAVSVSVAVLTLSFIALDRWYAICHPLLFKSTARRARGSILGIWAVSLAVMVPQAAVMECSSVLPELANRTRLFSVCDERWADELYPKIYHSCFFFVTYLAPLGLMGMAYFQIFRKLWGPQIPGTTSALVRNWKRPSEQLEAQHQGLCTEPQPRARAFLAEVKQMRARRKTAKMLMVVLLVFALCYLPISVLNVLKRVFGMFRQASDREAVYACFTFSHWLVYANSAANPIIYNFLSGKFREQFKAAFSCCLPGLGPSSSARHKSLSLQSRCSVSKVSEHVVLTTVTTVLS
- ASSAY_INFO: Inhibition of [^3H]almorexant binding to HEK293-rHCRTR1 membranes
pKi: −log10 of the molar value.
MEASURED_ENDPOINT: pKi

{"columns": ["SMILES_RECORD", "TARGET_OR_TEST_SYSTEM", "QUANTITATIVE_READOUT"],
 "data": [
  ["CNC(=O)[C@@H](c1ccccc1)N1CCc2cc(OC)c(OC)cc2[C@@H]1CCc1ccc(C(F)(F)F)cc1", "rHCRTR1 (Rattus norvegicus)", 8.15]
]}

---

- TARGET_OR_TEST_SYSTEM: rHCRTR1 (Rattus norvegicus)
- Construct: expressed in transfected cells; host or cells: HEK293 (transient transfection, pCI-Neo vector), membrane preparation
- ASSAY_INFO: Inhibition of [^3H]almorexant binding to HEK293-rHCRTR1 membranes
- EXPERIMENTAL_CONDITIONS: read-out: Ki

{"columns": ["MOLECULE", "Ki, nM"],
 "data": [
  ["Cc1cc(NC(=O)Nc2ccc(N(C)C)cc2)c2cc(F)cc(F)c2n1 [SB-408124]", 45.7]
]}

---

Overview of recorded fraction unbound for various compounds
- ASSAY_INFO: in vitro
- EXPERIMENTAL_CONDITIONS: rat, plasma
MEASURED_ENDPOINT: fraction unbound

{"columns": ["SMILES_RECORD", "MEASURED_ENDPOINT", "RESULT"],
 "data": [
  ["CNC(=O)[C@@H](c1ccccc1)N1CCc2cc(OC)c(OC)cc2[C@@H]1CCc1ccc(C(F)(F)F)cc1", "fraction unbound", "< 0.087"],
  ["Cc1cc(NC(=O)Nc2ccc(N(C)C)cc2)c2cc(F)cc(F)c2n1", "fraction unbound", "< 0.001"]
]}
